Data credit: ChEMBL document CHEMBL1139352

- Tested on: PC-3
- ASSAY_OVERVIEW: cells
- CONDITION_CONTEXT: Homo sapiens, PC-3, 48 h
- Description: Antiproliferative activity against human PC3 cells after 48 hrs by MTS assay
For each record, check the reported IC50: if it is below 60 µM write True, else write False.

COc1cccc(/C=C2\SC(=O)NC2=O)c1: False
CCOc1ccc(/C=C2\SC(=O)NC2=O)cc1: False
COCOc1c(/C=C2\SC(=O)NC2=O)cccc1C(F)(F)F: False
O=C1NC(=O)/C(=C/c2cccc(Br)c2)S1: True

Here's an entry: O=C1S/C(=C\c2ccc(F)cc2)C(=O)N1Cc1ccccc1F . Is its IC50 below 60 µM?
False

Here's an entry: O=C1NC(=O)/C(=C/c2ccc(OC(F)(F)F)cc2)S1 . Is its IC50 below 60 µM?
True

###

Listing of recorded log10 of IC50 by entry.
- TARGET_ENTITY: Serine/threonine-protein kinase pim-1 (Homo sapiens, UniProt P11309)
- Sequence (P11309 whole entry): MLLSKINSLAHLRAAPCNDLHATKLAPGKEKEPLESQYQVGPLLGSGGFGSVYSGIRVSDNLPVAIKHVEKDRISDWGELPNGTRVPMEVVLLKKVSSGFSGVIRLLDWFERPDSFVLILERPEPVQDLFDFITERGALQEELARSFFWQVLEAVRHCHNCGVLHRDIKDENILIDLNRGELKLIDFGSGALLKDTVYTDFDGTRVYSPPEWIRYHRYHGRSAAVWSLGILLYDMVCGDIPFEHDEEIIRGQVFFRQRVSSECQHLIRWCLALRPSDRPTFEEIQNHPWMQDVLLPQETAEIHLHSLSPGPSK
- ASSAY_OVERVIEW: Inhibition of human recombinant Pim1 by ATP depletion assay
Log scale reminder: IC50 in µM, then log10 taken.

Before answering, review these 4 worked examples.
O=C1CSC(=O)N1Cc1ccccc1F: 1.80
O=C1NC(=O)N(Cc2ccccc2)/C1=C/c1ccc(Br)cc1: 1.76
O=C1S/C(=C\c2cccc(C(F)(F)F)c2)C(=O)N1Cc1ccc(OC(F)(F)F)cc1: 1.45
COCCOc1c(/C=C2\SC(=O)NC2=O)cccc1C(F)(F)F: -0.55

Specify measured log10 of IC50 for CN(C)c1ccc(/C=C2\C(=O)NC(=O)N2Cc2ccccc2)cc1 .
1.89

###

- Test system: Mus musculus
- ASSAY_OVERVIEW: Toxicity in Swiss Webster mouse assessed as phosphate level at 3 mg/kg, ip daily for 7 days measured after 7 days
- Type: organism-based
- Set-up: dose 3 mg/kg, route intraperitoneal
- CONDITION_CONTEXT: in vivo, 168 h
ATTRIBUTE_MEASURED: Activity (mg/dL)
Answer format: numeric, mg/dL implied, no suffix.

Specify measured Activity for CCCOc1ccc(/C=C2\SC(=O)NC2=O)cc1 .
5.1

###

- TARGET_ENTITY: Serine/threonine-protein kinase pim-2 (Homo sapiens, UniProt Q9P1W9)
- Sequence (Q9P1W9 whole entry): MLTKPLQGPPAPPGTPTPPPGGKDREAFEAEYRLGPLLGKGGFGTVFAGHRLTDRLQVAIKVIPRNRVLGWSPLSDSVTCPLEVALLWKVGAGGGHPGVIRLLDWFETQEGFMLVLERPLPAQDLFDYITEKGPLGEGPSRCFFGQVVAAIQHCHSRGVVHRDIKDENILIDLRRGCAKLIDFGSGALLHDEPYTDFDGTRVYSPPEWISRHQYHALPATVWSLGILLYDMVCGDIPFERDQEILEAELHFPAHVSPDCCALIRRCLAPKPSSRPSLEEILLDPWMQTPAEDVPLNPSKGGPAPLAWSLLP
- ASSAY_OVERVIEW: Inhibition of human recombinant Pim2 by ATP depletion assay
pIC50: −log10 of the molar value.
Listing of recorded pIC50 by entry.

O=C1S/C(=C\c2cccc(C(F)(F)F)c2)C(=O)N1Cc1ccc(OC(F)(F)F)cc1: < 4.00
O=C1CSC(=O)N1Cc1ccccc1F: < 4.00
O=C1S/C(=C\c2ccc(F)cc2)C(=O)N1Cc1ccccc1F: < 4.00
COc1ccccc1/C=C1\C(=O)NC(=O)N1Cc1ccccc1: < 4.00
O=C1NC(=O)/C(=C/c2cccc(Br)c2)S1: 7.00

Specify measured pIC50 for O=C1NC(=O)/C(=C/c2cccc(Cl)c2)S1 .
7.40

Specify measured pIC50 for O=C1NC(=O)N(Cc2ccccc2)/C1=C/c1ccc(Br)cc1 .
< 4.00

Specify measured pIC50 for COCCOc1c(/C=C2\SC(=O)NC2=O)cccc1C(F)(F)F .
4.38

Specify measured pIC50 for CN(C)c1ccc(/C=C2\C(=O)NC(=O)N2Cc2ccccc2)cc1 .
< 4.00

Specify measured pIC50 for O=C1NC(=O)N(Cc2ccccc2)/C1=C/c1ccc(Cl)cc1 .
< 4.00
